Target: Human Thyroid Hormone Receptor β1 (TRβ1) (Homo sapiens, UniProt P10828)
Sequence (P10828 1-461): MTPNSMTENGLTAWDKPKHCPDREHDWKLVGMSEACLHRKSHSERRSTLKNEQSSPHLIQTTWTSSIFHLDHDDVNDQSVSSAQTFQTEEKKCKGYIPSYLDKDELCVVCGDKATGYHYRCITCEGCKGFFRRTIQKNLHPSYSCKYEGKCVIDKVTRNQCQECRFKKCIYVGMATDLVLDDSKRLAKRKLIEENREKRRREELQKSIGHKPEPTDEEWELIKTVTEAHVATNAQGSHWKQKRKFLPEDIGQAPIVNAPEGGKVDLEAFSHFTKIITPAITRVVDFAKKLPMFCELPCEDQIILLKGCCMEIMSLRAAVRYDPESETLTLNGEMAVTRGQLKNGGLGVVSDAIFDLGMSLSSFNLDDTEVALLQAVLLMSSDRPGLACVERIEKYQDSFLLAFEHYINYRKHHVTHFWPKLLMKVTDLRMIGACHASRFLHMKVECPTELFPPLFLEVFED
Assay: Transcription activation test of human thyroid hormone receptor β1 (luciferase reporter in 293T cells)
Details: EC50 of transcription activation on TRβ1, 293T cells, luciferase activity after 24 hr; read-out: TRβ
pEC50: −log10 of the molar value.
Would you please tag the item yes (1) when its pEC50 is 8 or above, and no (0) when it is below?

Ask: Could you tell me if the measured pEC50 of Cc1cc(OC2(C(=O)O)CC2)cc(C)c1Cc1ccc(O)c(C2CCCCC2)n1 [Example 18] reaches 8 or more?
Result: no (0)

Ask: Same read-out for Cc1cc(OCc2noc(=O)[nH]2)cc(C)c1Cc1ccc(O)c(-c2ccc3ccccc3c2)n1 [Example 29] ?
Result: yes (1)

Ask: Same read-out for Cc1cc(OCc2noc(=O)[nH]2)c(F)c(C)c1Cc1ccc(O)c(N2CCCCC2)n1 [Example 118] ?
Result: no (0)

Ask: Same read-out for Cc1cc(OCc2noc(=O)[nH]2)c(F)c(C)c1Cc1ccc(O)c(C(C)C)n1 [Example 37] ?
Result: yes (1)

Ask: Same read-out for Cc1cc(OCC(=O)O)c(C)c(C)c1Cc1ccc(O)c(C2CCCO2)n1 (centres unmarked) [Example 6] ?
Result: no (0)

* * *

Biological target: Human Thyroid Hormone Receptor α1 (TRα1) (Homo sapiens, UniProt P10827)
Construct: expressed in transfected cells; host or cells: 293T cells
Sequence (P10827 1-410 isoform P10827-2): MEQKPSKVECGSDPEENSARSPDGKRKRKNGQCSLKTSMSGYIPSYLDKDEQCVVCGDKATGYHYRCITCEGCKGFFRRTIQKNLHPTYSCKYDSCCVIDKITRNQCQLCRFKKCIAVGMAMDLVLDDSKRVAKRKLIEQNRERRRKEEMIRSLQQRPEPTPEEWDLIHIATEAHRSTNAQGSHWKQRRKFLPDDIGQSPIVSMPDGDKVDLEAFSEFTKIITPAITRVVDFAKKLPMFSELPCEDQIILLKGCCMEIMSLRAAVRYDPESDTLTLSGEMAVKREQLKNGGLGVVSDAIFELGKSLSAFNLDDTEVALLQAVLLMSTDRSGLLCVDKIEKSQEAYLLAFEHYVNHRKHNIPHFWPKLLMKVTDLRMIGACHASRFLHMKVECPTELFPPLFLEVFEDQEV
Assay: Transcription activation test of human thyroid hormone receptor α1 (luciferase reporter in 293T cells)
Assay type: cell-based
Settings: ratio TRα/TRβ of the transcription activation EC50 values
observed property: selectivity (TRα/TRβ)

These recorded examples may help you get a feel for the data.
Cc1cc(OC(C)(C)C(=O)O)c(C)c(C)c1Cc1ccc(O)c(C2CCCCC2)n1 : B (2<(TRα/TRβ)<5)
Cc1cccc(-c2nc(Cc3c(C)cc(OCc4noc(=O)[nH]4)c(F)c3C)ccc2O)c1F : A (5<(TRα/TRβ))
COCC1(c2nc(Cc3c(C)cc(OCc4noc(=O)[nH]4)c(F)c3C)ccc2O)CCCCC1 : B (2<(TRα/TRβ)<5)
COc1c(OCc2noc(=O)[nH]2)cc(C)c(Cc2ccc(O)c(C3CCCCC3)n2)c1C : C (2>(TRα/TRβ))

Ask: # value lookup — system Human Thyroid Hormone Receptor α1 (TRα1) (Homo sapiens, UniProt P10827), readout selectivity (TRα/TRβ), item Cc1cc(OCC(=O)O)c(F)c(C)c1Cc1ccc(O)c(C(C)C)n1
Result: B (2<(TRα/TRβ)<5)

Ask: Same read-out for Cc1cc(OCC(=O)O)c(C)c(C)c1Cc1ccc(O)c(C2CCCC2)n1 ?
Result: A (5<(TRα/TRβ))

Ask: Same read-out for O=C(O)COc1cc(Br)c(Cc2ccc(O)c(-c3ccccc3)n2)c(Br)c1F ?
Result: A (5<(TRα/TRβ))

Ask: Same read-out for Cc1cc(OCc2noc(=O)[nH]2)c(C)c(C)c1Cc1ccc(O)c(C2CCCCC2)n1 ?
Result: B (2<(TRα/TRβ)<5)

* * *

Molecular target: Human Thyroid Hormone Receptor β1 (TRβ1) (Homo sapiens)
Assay: Transcription activation test of human thyroid hormone receptor β1 (luciferase reporter in 293T cells)
Conditions: EC50 of transcription activation on TRβ1, 293T cells, luciferase activity after 24 hr; read-out: TRβ
pEC50: −log10 of the molar value.
Using pEC50 as the sorting value, the categories are lower level = under 8, middle level = from 8 up to 9, upper level = 9 and over

Ask: Class for Cc1cc(OCc2noc(=O)[nH]2)cc(C)c1Cc1ccc(O)c(-c2ccc3c(c2)CCCC3)n1 ?
Result: middle level

Ask: Same read-out for Cc1cc(OCc2noc(=O)[nH]2)c(C)c(C)c1Cc1ccc(O)c(C2CCCCC2)n1 ?
Result: upper level

Ask: Same read-out for Cc1cc(OCC(=O)O)cc(C)c1Cc1ccc(O)c(-c2ccc3ccccc3c2)n1 ?
Result: lower level

Ask: Same read-out for Cc1cc(NC(=O)CC(=O)O)cc(C)c1Cc1ccc(O)c(-c2ccccc2)n1 ?
Result: lower level

Ask: Same read-out for Cc1cc(OCc2noc(=O)[nH]2)cc(C)c1Cc1ccc(O)c(C(C)C)n1 ?
Result: upper level

Ask: Same read-out for Cc1cc(OC(C)(C)C(=O)O)c(C)c(C)c1Cc1ccc(O)c(C2CCCCC2)n1 ?
Result: lower level

Ask: Same read-out for Cc1cc(OCC(=O)O)c(C)c(C)c1Cc1ccc(O)c(-c2cccc(Cl)c2)n1 ?
Result: upper level

Ask: Same read-out for Cc1cc(C(=O)O)c(C)c(C)c1Cc1ccc(O)c(C2CCCCC2)n1 ?
Result: lower level

Ask: Same read-out for Cc1cc(OCC(=O)O)c(C)c(C)c1Cc1nc(C2CCCCC2)c(O)cc1F ?
Result: upper level

Ask: Same read-out for Cc1cc(OCC(=O)O)c(Br)c(C)c1Cc1ccc(O)c(C2CCCCC2)n1 ?
Result: upper level

Ask: Same read-out for Cc1cc(OCc2noc(=O)[nH]2)c(C)c(C)c1Cc1ccc(O)c(C2CCCC2)n1 ?
Result: upper level

Ask: Same read-out for Cc1cc(NC(=O)CC(=O)O)c(F)c(C)c1Cc1ccc(O)c(C2CCCCCC2)n1 ?
Result: middle level

Ask: Same read-out for Cc1cc(OCC(=O)O)c(C)c(C)c1Cc1ccc(O)c(C(C)C)n1 ?
Result: upper level

Ask: Same read-out for Cc1cc(OCC(=O)O)c2c(c1Cc1ccc(O)c(C3CCCCC3)n1)CCC2 ?
Result: middle level

Ask: Same read-out for Cc1cc(OCC(=O)O)cc(C)c1Cc1ccc(O)c(C2CCCCC2)n1 ?
Result: middle level

Ask: Same read-out for Cc1cc(-c2cc(O)no2)c(C)c(C)c1Cc1ccc(O)c(C(C)C)n1 ?
Result: upper level

Ask: Same read-out for O=C(O)COc1cc(Br)c(Cc2ccc(O)c(-c3ccccc3)n2)c(Br)c1F ?
Result: middle level

Ask: Same read-out for Cc1cc(NC(=O)CC(=O)O)c(C)c(C)c1Cc1ccc(O)c(C2CCCCC2)n1 ?
Result: lower level

Ask: Same read-out for Cc1cc(NC(=O)CC(=O)O)cc(C)c1Cc1ccc(O)c(C(C)C)n1 ?
Result: lower level

Ask: Same read-out for Cc1nc(OCC(=O)O)c(C)c(C)c1Cc1ccc(O)c(C2CCCCC2)n1 ?
Result: middle level

Ask: Same read-out for Cc1cc(OCC(=O)O)c(C)c(C)c1Cc1ccc(O)c(C2CCCCO2)n1 (stereo not shown) ?
Result: lower level

Ask: Same read-out for Cc1cc(OCc2noc(=O)[nH]2)c(C)c(C)c1Oc1ccc(O)c(C(C)C)n1 ?
Result: middle level

Ask: Same read-out for Cc1cc(OCc2noc(=O)[nH]2)c2c(c1Cc1ccc(O)c(C3CCCCC3)n1)CCO2 ?
Result: middle level

* * *

Please respond with reported pEC50 for every item in the list.
Biological target: UniProtKB P10828
Assay: Transcription activation test of human thyroid hormone receptor β1 (luciferase reporter in 293T cells)
Conditions: EC50 of transcription activation on TRβ1, 293T cells, luciferase activity after 24 hr; read-out: TRβ
// pEC50: -log10(molar conc.)

Ask: Reported pEC50, molecule Cc1cc(OCC(=O)O)cc(C)c1Cc1ccc(O)c(C(C)C)n1 : ____
Result: 8.52

Ask: Same read-out for Cc1cc(OCC(=O)O)c(C#N)c(C)c1Cc1ccc(O)c(C2CCCCC2)n1 ?
Result: 6.70

Ask: Same read-out for Cc1cc(OCc2noc(=O)[nH]2)c(C)c(C)c1Cc1ccc(O)c(C(C)C)n1 ?
Result: 9.70

Ask: Same read-out for Cc1cc(/C=C/C(=O)O)c(C)c(C)c1Cc1ccc(O)c(C2CCCCC2)n1 ?
Result: 9.00

Ask: Same read-out for Cc1cc(OCc2noc(=O)[nH]2)c(F)c(C)c1Cc1ccc(O)c(-c2cccc(N3CCCC3)c2)n1 ?
Result: 8.52

Ask: Same read-out for Cc1cc(OCC(=O)O)c(C)c(C)c1Cc1ccc(O)c(C2CCCC2)n1 ?
Result: 9.30

Ask: Same read-out for Cc1cc(OCC(=O)O)c(C)c(C)c1Cc1ccc(O)c(C(=O)N(C)CCc2ccccc2)n1 ?
Result: 7.00

Ask: Same read-out for Cc1cc(OCc2noc(=O)[nH]2)c(C)c(C)c1Cc1ccc(O)c(C2CCCO2)n1 (centres unmarked) ?
Result: 8.10

Ask: Same read-out for Cc1cc(NC(=O)C(=O)O)cc(C)c1Cc1ccc(O)c(C2CCCCC2)n1 ?
Result: 8.30

Ask: Same read-out for Cc1cc(OCC(=O)O)c(C)c(C)c1Cc1ccc(O)c(-c2cccc(F)c2)n1 ?
Result: 8.70

Ask: Same read-out for Cc1cc(NC(=O)CC(=O)O)cc(C)c1Cc1ccc(O)c(C2CCCCC2)n1 ?
Result: 8.00

Ask: Same read-out for Cc1cc(OCC(=O)O)c(C)c(C)c1Cc1ccc(O)c(C2CCCCCC2)n1 ?
Result: 9.00

Ask: Same read-out for CCCOc1cccc(-c2nc(Cc3c(C)cc(OCc4noc(=O)[nH]4)c(F)c3C)ccc2O)c1 ?
Result: 8.52

Ask: Same read-out for Cc1cc(C(=O)NCC(=O)O)cc(C)c1Cc1ccc(O)c(C2CCCCC2)n1 ?
Result: 7.10

Ask: Same read-out for Cc1cc(CC(F)C(=O)O)c(C)c(C)c1Cc1ccc(O)c(C2CCCCC2)n1 (centres unmarked) ?
Result: 9.00

Ask: Same read-out for Cc1cc(OC(C)(C)C(=O)O)cc(C)c1Cc1ccc(O)c(C2CCCCC2)n1 ?
Result: 7.70

Ask: Same read-out for Cc1cc(OCC(=O)O)c(F)c(C)c1Cc1ccc(O)c(C(C)C)n1 ?
Result: 9.00

Origin of values: patent US8791266B2
